Please respond with reported melting point for every item in the list.

Entry "CC(=O)NC[C@H]1CN(c2ccc(N3CCC(n4cc(C(C)=O)nn4)CC3)c(F)c2)C(=O)O1" — recorded melting point = 220 to 222 °C

Short answer for CC1(C2CCC3C4C=CC5=CC(=O)C6OC6C5(C)C4CCC32C)OCCO1 (stereo not given) : melting point was 137 to 138 °C

response.value for CN(C)c1ccc(CC(=O)Nc2cc(CC3SC(=O)NC3=O)ccc2O)cc1 (stereo not given) (field: melting point) = 216 to 218 °C

Reported melting point ( "CC(C)(C)[C@H]1CC[C@H](CC2=C(O)C(=O)c3ccccc3C2=O)CC1" ) = 180 to 182 °C

Form field melting point, entry Cc1ccc(C2c3c(cc(C)c(Br)c3C)OC2(C)C)cc1 (stereo not given) : 116 to 118 °C

melting point reported for this compound "O=C(O)c1cc(NCc2ccc(C(F)(F)F)cc2)ccc1O" : > 188 °C

Notebook: "COc1ccccc1CCn1nnnc1-c1ccc2c(c1)C=CC(C)(C)O2" , melting point read as 101 to 105 °C

In plain terms, "CC(=O)SC1CN(C(=O)OCc2ccccc2)C1" has a documented melting point of 94.5 to 95.5 °C

Record "CCOc1cc2ncc(C#N)c(Nc3ccc4c(c3)CCC4)c2cc1OCC" . Reported melting point: 85 to 88 °C

For record "CCOC(=O)C(C#N)=Cc1cc(Oc2c(Cl)cc(C(F)(F)F)cc2Cl)ccc1[N+](=O)[O-]" the listed melting point is 99 °C

get_value(item= "CC(=O)C(C(=O)c1ccccc1)=C1CCCN1" , readout=melting point) returns 106 to 108 °C

What the record says about "CCCC1=NN(c2ccc(C(=O)O)cc2)C(=O)C1=CNc1ccccc1CC" : melting point is 254 °C

Entry "CCCCc1nc2c(N)nc3ccccc3c2n1CC1(O)CCOCC1" — recorded melting point = 235 to 236 °C

For reference, reported melting point for "N#Cc1c(Cl)c2ccccc2[nH]c1=O" stands at > 250 °C

Query "Cc1nc2cc(NC(=O)c3cc4cc(C(F)(F)F)cnc4n3Cc3cccc(F)c3)ccc2s1" yields melting point of 204 to 206 °C

Form: compound = "CN=C(NS(=O)(=O)c1ccc(C)cc1)N1CCc2nc(N)sc2C1" ; melting point = 206 to 208 °C

Entry "CCC(C)(C)OC(=O)N1CCC(c2ccc(COc3ccc(S(C)(=O)=O)cc3)nc2)CC1" — recorded melting point = 114 to 115 °C

Input "CSc1nnc(CNc2c(C)csc2C)n1C" . Output melting point: 92 to 96 °C

# compound "OC/C=C/c1ccc(O)c(OCc2ccccc2)c1" ; its melting point = 99 to 101 °C

Recorded result, CCCCCCCCCCCCCC(CP(c1ccccc1)c1ccccc1)C(C)CP(c1ccccc1)c1ccccc1 (stereo not given) , melting point: 105 to 106 °C

The value of melting point measured for the compound CS(=O)(=O)Nc1cc(C(c2cc(F)ccc2F)S(=O)(=O)c2ccc(Cl)cn2)c(Cl)cn1 (stereo not given) turned out to be 214 to 216 °C

Per the record, "CS(=O)(=O)c1ccc(-c2sc(-c3ccccc3Cl)nc2-c2ccccc2F)cc1" has melting point of 163 to 166 °C

Note to self: melting point recorded for "CC(C)(C)OC(=O)N1CCC[C@H]1C(=O)O[C@H]1CO[C@H]2[C@H]1OC[C@H]2O[N+](=O)[O-]" was 109 to 111 °C

Reported melting point ( CCOC(=O)C1=C(COC(C)=O)Nc2nc(N3CCOCC3)nc(N3CCOCC3)c2C1c1cccc(Cl)c1Cl (stereo not given) ) = 161 °C

In plain terms, CC(=O)OC(CCc1cc2cccnc2n(-c2cccc([N+](=O)[O-])c2)c1=O)c1ccncc1 (stereo not given) has a documented melting point of 69 to 71 °C

The reported melting point of the compound "CNC=C1C(=O)C(C)(C)OC1(C)C" was 80 to 82 °C

The value of melting point measured for the compound "N#CCC(=N)c1cccc(F)c1" turned out to be 67 to 68 °C

Measured melting point, "CN(C)C(=O)Nc1ccc(O)cc1" : 178 to 179 °C

GET /value?item= "CCOC(=O)c1cc(-n2c(=O)ccn(C)c2=O)ccc1Cl" &field=melting point returns 147 to 148 °C

For this compound ( CC(C)C(C)(C#N)NC(=O)c1ccccc1C(=O)O (stereo not given) ), measured melting point is 154 to 155 °C

Recorded result, CC(=O)c1ccc2c(c1)OCC(C(=O)O)O2 (stereo not given) , melting point: 159 to 162 °C

What the record says about "CCCc1nnc2c(=O)n(C)c3ccc(Cl)cc3n12" : melting point is 265 to 266 °C

Data point: "CCCCCCCCCCCCc1cc2c(s1)NC(=O)CN=C2c1ccccc1Cl" ; melting point = 119 to 121 °C

Briefly, melting point measured for "COCC(=S)Nc1c(Cl)c(C)cc2nc(OC)c(OC)nc12" : 174 to 176 °C

// melting point value for "CS(=O)(=O)NC(=O)c1cccc([N+](=O)[O-])c1" : 175 to 178 °C

---

For each record, write down the corresponding melting point.

Note to self: melting point recorded for "Nc1nc2ccccc2c2c1ncn2CCCCNC(=O)c1cccc(Oc2ccccc2)c1" was 105 to 107 °C

melting point reported for this compound "Cc1[nH]cnc1Cc1cccc(CO)c1O" : 126 to 130 °C

Field melting point (entry "CC(C)Sc1c(C(N)=O)sc2ccc(OCc3ccccc3)cc12" ) reads 150 to 152 °C

Kindly note the recorded melting point for "Cn1cnc2c(cnn2-c2ncc(C(F)(F)F)cc2Cl)c1=O" , which is 253 °C

Looking up "CC(C)NC(=O)N(Nc1cccc(Cl)c1Cl)C1=CCCN1" , I found its melting point recorded as 109 to 111 °C

Measured melting point of CC1(C)Oc2c(ccc3ccccc23)C2OC21 (stereo not given) : 120 to 121 °C

Note to self: melting point recorded for "CN(C)CCc1[nH]c2ccccc2c1CSC(=S)N(C)C" was 125 to 128 °C

According to the records, this compound "O=C(CCCCSc1nc(-c2ccccc2)c(-c2ccccc2)[nH]1)NCCOCCO" displays melting point of 176 to 178 °C

// melting point value for "CC(C)n1nc(-c2c(OCC(=O)O)nc(N)nc2-c2ccccc2)ccc1=O" : 215 to 217 °C

Short answer for "Cc1ccc(S(=O)(=O)n2ccc3cc(F)ccc32)cc1" : melting point was 106 to 108 °C

---

Readout: melting point

The reported melting point of the compound "N#Cc1ccc(OCCCCCCOc2cccc(-c3cc4ccc(C#N)cc4o3)c2)cc1" was 125 to 127 °C

"CCn1c(=O)n(C2CCN(C(C)(C)CCCN3C(=O)c4ccccc4S3(=O)=O)CC2)c2ccccc21" has a reported melting point of 182 to 185 °C

Lab note: "COC(=O)c1cn2c(C)c(C)sc2n1" gave melting point of 180 to 181 °C

The reported melting point of the compound "COC1=C(C#N)C(=O)N(C)C1=O" was 123 to 125 °C

The reported melting point of the compound "C[C@H](C(=O)OCc1ccccc1)n1ccn(-c2ccc(OCC(F)(F)C(F)F)cc2)c1=O" was 75 to 76 °C

Value of melting point reported for the compound "Nc1nc(SSc2n[nH]c(N)n2)n[nH]1" is 250 to 256 °C

Reported melting point of "Cc1c(Br)c(C)c(Cc2ccc(C(C)C)cc2)c2c1CCO2" : 95 to 96 °C

What the record says about "COc1cccc(-c2cn3cc(C(=O)NCCCCCCC(=O)NO)sc3n2)c1" : melting point is 209 to 211 °C

Kindly note the recorded melting point for CCN1NC=C2C1=NC=CC2(ON=C(C)C)C(O)c1ccccn1 (centres undefined) , which is 131 to 133 °C

Given item "CCOc1cc(-c2ccc(-c3ccc(N=Nc4ccccn4)c(OCC)c3)o2)ccc1N=Nc1ccccn1" , the value recorded as its melting point is 205 to 210 °C

Measured melting point of "CC(=O)Nc1c(C(=O)c2ccco2)[nH]c2cc(Cl)ccc12" : 227 to 228 °C

Summary for this compound, COc1ccc(NC(=O)O[C@H]2COC(c3ccccc3)=N[C@@H]2c2ccccc2)cc1 (racemic) : melting point is 140 °C

Per the records, this compound ( CC(C#Cc1ccc(C=Cc2ccc(F)cc2)s1)N(O)C(N)=O (centres undefined) ) has melting point equal to 177 °C

Lab note: "COc1cc(C(=O)NC=NC(=O)ON(c2ccc(C)c(NC(=O)c3ccc(C=Cc4ccccc4)cc3)c2)C(C)(C)C)cc(OC)c1OC" gave melting point of 166 °C

For reference, reported melting point for "CC(=O)Oc1ccc(C=CC(=O)NC23CC4CC(CC(C4)C2)C3)cc1[N+](=O)[O-]" stands at 179 to 180 °C

get_value(item= "CCCCCCCCCCCCNc1ccc(OCC)cc1" , readout=melting point) returns 38 to 39 °C

The value of melting point measured for the compound Fc1ccc(-c2[nH]c(C3CCCNC3)nc2-c2ccncc2)cc1 (centres undefined) turned out to be 252 to 254 °C

Measured melting point of "CCn1cc(C(=O)O)c(=O)c2cc(Cl)c(N3CCN(c4ccccc4)CC3)cc21" : 234 to 235 °C

Consider "Cc1c(CN2C(=O)c3ccccc3C2=O)cccc1C(F)(F)C(F)(F)c1ccccc1" . Its measured melting point is 135 to 137 °C

The compound identified as "CCc1ccc(NC(=S)Nc2cc([N+](=O)[O-])ccc2O)cc1" registered its melting point at 137 to 138 °C

Form: compound = "FC(F)(F)c1ccc(-c2cc(C(F)(F)F)cc(Br)n2)cc1" ; melting point = 35 to 37 °C

Value of measured melting point for the entry CC(CCN1C(=O)c2ccccc2C1=O)Cc1ccc(C(=O)CCC(=O)O)cc1 (centres undefined) : 142 to 143 °C

Field melting point (entry Nc1nc(Cl)cc(NCC2(CO)CC(O)C2)n1 (centres undefined) ) reads 136 to 139 °C

For record CN1CCN(C(=O)CN2C(=O)C(NC(=O)Nc3ccc(Cl)cc3)N=C(c3ccccc3)c3ccccc32)CC1 (centres undefined) the listed melting point is 278 to 280 °C

Reference source: a melting point compilation (Tetko et al.; mined from patent text by program, amines drawn as free bases though some values may be those of a salt)
